Documented melting point across a set of compounds

Example results:
CC1(C)C=Cc2c(c3ccccc3n(Cc3ccccc3)c2=O)O1: 91 to 92 °C
Cc1cnc(SCc2cc3c(cc2O)CCCO3)n1C: 139 to 140 °C
Nc1cccc(OCCCN2CCC(c3noc4cc(F)ccc34)CC2)c1: 115 to 117 °C
COc1ccc(C(=O)C=Cc2ccc(N(C)C)cc2)c(OC)c1OC: 88 to 89 °C
CC1(COc2ccc([N+](=O)[O-])cc2)CC(=O)c2cc(C(=O)O)ccc2O1 (stereo not given): 227 to 235 °C

Request: For the compound `Brc1cc2nc(NC3=NCCN3)[nH]c2cc1Br` , give its measured melting point value.
Result: 261 to 267 °C

Request: For the compound O=C(O)Cc1ccc(SCCNC(=O)C2Cc3ccccc3N2S(=O)(=O)c2ccc(-c3ccccc3C(F)(F)F)cc2)c(Cl)c1 (stereo not given) , give its measured melting point value.
Result: 86 °C

Request: For the compound `CC(C)(C)OC(=O)N1CCn2c(c(C(N)=O)c(Br)c2C2CC2)C1` , give its measured melting point value.
Result: 162 °C

Request: For the compound `CCCCCCCC(=O)Oc1ccc2nc(S(N)(=O)=O)sc2c1` , give its measured melting point value.
Result: 114 °C

Request: For the compound `CC(C)Cc1nc2ccc(C#N)cc2c(-c2ccccc2)c1CN` , give its measured melting point value.
Result: 128 to 130 °C
